testTarget: SOS1 and KRAS G12D (Homo sapiens (Human), UniProt Q07889)
Sequence (Q07889 564-1049, stated change not applied): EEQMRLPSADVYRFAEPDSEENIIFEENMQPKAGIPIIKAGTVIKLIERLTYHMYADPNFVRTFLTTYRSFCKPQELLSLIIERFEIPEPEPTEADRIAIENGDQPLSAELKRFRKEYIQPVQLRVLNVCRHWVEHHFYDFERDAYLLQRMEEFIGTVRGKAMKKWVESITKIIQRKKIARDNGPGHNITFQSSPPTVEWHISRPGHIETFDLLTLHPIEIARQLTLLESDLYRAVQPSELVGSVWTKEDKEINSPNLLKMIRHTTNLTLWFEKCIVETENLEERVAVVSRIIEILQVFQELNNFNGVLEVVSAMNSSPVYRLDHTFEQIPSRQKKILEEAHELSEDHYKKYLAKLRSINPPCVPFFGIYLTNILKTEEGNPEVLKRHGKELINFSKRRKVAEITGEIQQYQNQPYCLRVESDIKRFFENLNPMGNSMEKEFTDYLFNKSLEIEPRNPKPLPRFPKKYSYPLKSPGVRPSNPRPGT
assayNotes: KRAS::SOS1 AlphaScreen binding assay (KRAS G12D)
conditions: average of at least two measurements
measure: IC50 (nM)

Illustrative cases are given below, each with its answer.
>>> readoutvalue("C[C@@H](NC(=O)c1cc(N2CCC(N3CCCC(C)(O)C3)CC2)c2ncnn2c1)c1cccc(C(F)(F)F)c1F (single isomer, unassigned) [Example E47a]")
99
>>> readoutvalue("CO[C@@H]1CCN(C2CCN(c3cc(C(=O)N[C@H](C)c4cccc(C(F)(F)F)c4F)cn4cnnc34)CC2)C1")
60
>>> readoutvalue("C[C@@H](NC(=O)c1cc(N2CCC3(CCCN3C)CC2)c2ncnn2c1)c1cccc(C(F)F)c1F")
33
>>> readoutvalue("C[C@@H](NC(=O)c1cc([C@H]2CC[C@H](N3CCC(F)C(O)C3)CC2)c2ncnn2c1)c1cccc(C(F)(F)F)c1F (single isomer, unassigned) [Example trans-E70a]")
34
>>> readoutvalue("C[C@@H](NC(=O)c1cc(N2CCC3(CCCCN3C)CC2)c2ncnn2c1)c1cccc(C(F)(F)F)c1F")
31

1. CO[C@H]1CCN(C2CCN(c3cc(C(=O)N[C@H](C)c4cccc(C(F)F)c4F)cn4ncnc34)CC2)C1
2. C[C@@H](NC(=O)c1cc([C@H]2CC[C@H](N3CCC[C@@H](O)C3)CC2)c2ncnn2c1)c1cccc(C(F)(F)F)c1F
Exam item: Exercise: compare 1 and 2 ; which one has the greater IC50? Response format: the label of the selected entry.
Marked response: 1
